Tested on: Saccharomyces cerevisiae
Assay: protein stability index of tFT-peptide fusion (C-terminal peptide) (PSI (0-1 scale)); higher = more stable (slower turnover)
Conditions: genetic background: das1 deletion; temperature: 37 C
Below: a set of entries, each annotated with reported protein stability index.
Answer with a bare number; do not write a unit.

Here are 5 sequences together with their reported answers.
INSERT INTO assay_data (sequence_entry, reported_metric, observed_measurement) VALUES
  ('FHFLFLFSLVSV', 'protein stability index', 0.412),
  ('FRCPHAVKLVLV', 'protein stability index', 0.471),
  ('LRFFYFLHFCIL', 'protein stability index', 0.504),
  ('LLVFFLAIPSLV', 'protein stability index', 0.413),
  ('AWVEVYVISIGV', 'protein stability index', 0.324);

Incoming: Consider the sequence "GCVVLNTVAFIC" and give its recorded protein stability index.
Outgoing: 0.625

Incoming: Consider the sequence "TPPLPTTPTLNS" and give its recorded protein stability index.
Outgoing: 0.703

Incoming: Consider the sequence "VVLVLLCIGRLL" and give its recorded protein stability index.
Outgoing: 0.554

====

Test system: Saccharomyces cerevisiae
Test: protein stability index of tFT-peptide fusion (C-terminal peptide) (PSI (0-1 scale)); higher = more stable (slower turnover)
Conditions: genetic background: wild type; temperature: 37 C
Decision: protein stability index compared against 0.5; not below it gives fulfilled, below it gives not fulfilled.

Example entries and their recorded answers appear below.
INSERT INTO assay_data (sequence_entry, test_target, class_assignment) VALUES
  ('LFFGLCFVFFGF', 'Saccharomyces cerevisiae', 'not fulfilled'),
  ('VFAFVVFLHFEC', 'Saccharomyces cerevisiae', 'not fulfilled');

Incoming: # bool: protein stability index of "CPVSRHLLVLYW" >= 0.5
Outgoing: not fulfilled

Incoming: # bool: protein stability index of "RNKIWCTVIMRL" >= 0.5
Outgoing: not fulfilled

Incoming: # bool: protein stability index of "GREGETGSKAGR" >= 0.5
Outgoing: fulfilled

Incoming: # bool: protein stability index of "TFRVRRQKNRNM" >= 0.5
Outgoing: not fulfilled

Incoming: # bool: protein stability index of "GVSRRWFSLRCI" >= 0.5
Outgoing: not fulfilled

====

Below: a set of entries, each annotated with reported protein stability index.
System: Saccharomyces cerevisiae
Assay: protein stability index of tFT-peptide fusion (C-terminal peptide) (PSI (0-1 scale)); higher = more stable (slower turnover)
Conditions: genetic background: wild type; temperature: 30 C
Answer with a bare number; do not write a unit.

Here are 4 sequences together with their reported answers.
INSERT INTO measurements (sequence_entry, reported_metric, observed_measurement) VALUES
  ('SLLDPLLPLLLF', 'protein stability index', 0.634),
  ('SLIRSHKLKLFP', 'protein stability index', 0.732),
  ('GEGEAVREMRGV', 'protein stability index', 0.645),
  ('PHGLKPHCPTPS', 'protein stability index', 0.728);

Incoming: Consider the sequence "DEKKMEKQTNRT" and give its recorded protein stability index.
Outgoing: 0.638

Incoming: Consider the sequence "SVLSVAIRAPTQ" and give its recorded protein stability index.
Outgoing: 0.691

Incoming: Consider the sequence "GCGGRTAAWGGG" and give its recorded protein stability index.
Outgoing: 0.655

====

Below: a set of entries, each annotated with reported protein stability index.
System: Saccharomyces cerevisiae
Test: protein stability index of tFT-peptide fusion (C-terminal peptide) (PSI (0-1 scale)); higher = more stable (slower turnover)
Conditions: genetic background: wild type; temperature: 30 C
Answer with a bare number; do not write a unit.

Incoming: Report value: protein stability index, system: Saccharomyces cerevisiae, sequence: DDPDENTALLGA [YDR338C C-terminal 12 aa]
Outgoing: 0.711

Incoming: Report value: protein stability index, system: Saccharomyces cerevisiae, sequence: SIDKWFFISGSV [IPP1 C-terminal 12 aa]
Outgoing: 0.709
